Molecular target: plasmin (Homo sapiens, UniProt P00747)
Sequence (P00747 97-580 limits assumed): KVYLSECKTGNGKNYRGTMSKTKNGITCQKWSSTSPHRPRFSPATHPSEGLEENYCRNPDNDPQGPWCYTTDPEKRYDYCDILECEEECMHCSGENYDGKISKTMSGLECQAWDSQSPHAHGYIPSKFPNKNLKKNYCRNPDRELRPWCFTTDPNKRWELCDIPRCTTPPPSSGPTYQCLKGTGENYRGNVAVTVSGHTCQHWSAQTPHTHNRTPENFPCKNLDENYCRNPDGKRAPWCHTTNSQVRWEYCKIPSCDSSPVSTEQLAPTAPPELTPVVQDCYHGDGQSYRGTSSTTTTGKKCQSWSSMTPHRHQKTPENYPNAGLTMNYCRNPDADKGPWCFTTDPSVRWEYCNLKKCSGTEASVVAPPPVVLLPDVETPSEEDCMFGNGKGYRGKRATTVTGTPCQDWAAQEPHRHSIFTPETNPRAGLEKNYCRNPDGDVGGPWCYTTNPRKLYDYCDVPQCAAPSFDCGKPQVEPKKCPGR
Sequence (P00747 581-810 limits assumed): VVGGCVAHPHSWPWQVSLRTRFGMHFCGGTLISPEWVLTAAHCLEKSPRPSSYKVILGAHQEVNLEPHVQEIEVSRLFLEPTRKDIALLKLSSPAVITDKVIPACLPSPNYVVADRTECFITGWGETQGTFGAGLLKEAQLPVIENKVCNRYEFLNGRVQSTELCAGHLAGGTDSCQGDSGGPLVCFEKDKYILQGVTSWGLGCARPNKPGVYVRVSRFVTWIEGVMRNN
Assay: Plasmin inhibition assay with chromogenic substrate S-2251 (Dixon plot, Cornish-Bowden plot)
Format: biochemical
Details: read-out: Plasmin Ki; S-2251, 42.5 nM human plasmin, PBS pH 7.4, Dixon plot
VALUE KIND: Ki (µM)

# STRUCTURE NOTATION, QUANTITATIVE RESULT
records = [
    ("N=C(N)c1ccc(CNC(=O)CCOCCOCCOCCOCCNC(=O)[C@H]2CC[C@H](CN)CC2)cc1", 42),
    ("N=C(N)c1ccc(CNC(=O)CCOCCOCCOCCOCCOCCOCCOCCOCCOCCOCCOCCOCCNC(=O)[C@H]2CC[C@H](CN)CC2)cc1", 207),
    ("N=C(N)c1ccc(CNC(=O)CCOCCOCCOCCOCCNC(=O)CCCCCN)cc1", 233),
]

====

Target: plasmin (Homo sapiens, UniProt P00747)
Assay: Plasmin inhibition assay with chromogenic substrate S-2251 (Dixon plot, Cornish-Bowden plot)
Type: biochemical
Conditions: plasmin
This listing pairs molecules with measured rpTXA (KiTXA/Kihetero).

# MOLECULE, rpTXA (KiTXA/Kihetero)
records = [
    ("N=C(N)c1ccc(CNC(=O)CCOCCOCCOCCOCCNC(=O)[C@H]2CC[C@H](CN)CC2)cc1 [TXA-dPEG4-AMB]", 509),
    ("N=C(N)c1ccc(CNC(=O)CCOCCOCCOCCOCCOCCOCCOCCOCCOCCOCCOCCOCCOCCOCCOCCOCCOCCOCCOCCOCCOCCOCCOCCOCCOCCOCCOCCOCCOCCOCCOCCOCCOCCOCCOCCOCCNC(=O)[C@H]2CC[C@H](CN)CC2)cc1 [TXA-dPEG36-AMB]", 285),
    ("N=C(N)c1ccc(CNC(=O)CCOCCOCCOCCOCCOCCOCCOCCOCCNC(=O)[C@H]2CC[C@H](CN)CC2)cc1 [TXA-dPEG8-AMB]", 216),
    ("N=C(N)c1ccc(CNC(=O)CCOCCOCCOCCOCCOCCOCCOCCOCCOCCOCCOCCOCCNC(=O)[C@H]2CC[C@H](CN)CC2)cc1 [TXA-dPEG12-AMB]", 103),
]

====

# pKi annotations
Biological target: human tPA (Homo sapiens, UniProt P00750)
Sequence (P00750 36-562): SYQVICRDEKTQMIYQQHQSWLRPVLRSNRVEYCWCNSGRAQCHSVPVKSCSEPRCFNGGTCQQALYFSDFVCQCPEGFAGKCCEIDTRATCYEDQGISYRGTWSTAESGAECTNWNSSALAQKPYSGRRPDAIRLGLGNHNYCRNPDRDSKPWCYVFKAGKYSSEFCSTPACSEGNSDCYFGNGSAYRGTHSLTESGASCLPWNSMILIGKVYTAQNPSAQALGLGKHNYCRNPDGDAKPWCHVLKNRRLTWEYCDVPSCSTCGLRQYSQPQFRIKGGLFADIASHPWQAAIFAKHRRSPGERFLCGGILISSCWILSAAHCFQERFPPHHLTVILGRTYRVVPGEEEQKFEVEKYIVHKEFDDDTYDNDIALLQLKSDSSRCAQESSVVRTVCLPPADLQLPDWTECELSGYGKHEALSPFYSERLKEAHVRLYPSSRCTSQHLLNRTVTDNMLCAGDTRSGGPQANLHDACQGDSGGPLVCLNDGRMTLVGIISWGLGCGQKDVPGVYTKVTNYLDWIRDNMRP
Experiment: tPA inhibition assay with chromogenic substrate S-2288 (Dixon plot, Cornish-Bowden plot)
Type: biochemical
Conditions: read-out: tPA Ki; S-2288, 75 nM human tPA, PBS pH 7.4, Dixon plot
pKi: −log10 of the molar value.

# COMPOUND, pKi
data = [
    ("N=C(N)c1ccc(CNC(=O)CCOCCOCCOCCOCCOCCOCCOCCOCCNC(=O)[C@H]2CC[C@H](CN)CC2)cc1 [TXA-dPEG8-AMB]", 3.53),
    ("N=C(N)c1ccc(CNC(=O)CCOCCOCCOCCOCCOCCOCCOCCOCCOCCOCCOCCOCCOCCOCCOCCOCCOCCOCCOCCOCCOCCOCCOCCOCCOCCOCCOCCOCCOCCOCCOCCOCCOCCOCCOCCOCCNC(=O)[C@H]2CC[C@H](CN)CC2)cc1 [TXA-dPEG36-AMB]", 3.87),
    ("N=C(N)c1ccc(CNC(=O)CCOCCOCCOCCOCCNC(=O)CCCCCN)cc1 [EACA-dPEG4-AMB]", 3.30),
    ("N=C(N)c1ccc(CNC(=O)CCOCCOCCOCCOCCOCCOCCOCCOCCOCCOCCOCCOCCNC(=O)[C@H]2CC[C@H](CN)CC2)cc1 [TXA-dPEG12-AMB]", 3.19),
    ("N=C(N)c1ccc(CNC(=O)CN(CC(=O)NCc2ccc(C(=N)N)cc2)CC(=O)NCc2ccc(C(=N)N)cc2)cc1 [Tri-AMB]", 3.79),
]

Data provenance: paper PMC12186753
